Numbers sourced from PubChem BioAssay.

System: Noggin (protein binding on small-molecule microarray)
Procedure Summary: small molecules binding Noggin protein – biochemical, 635/667 nm fluorescence, primary screen (AID 1095);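 note: score merges 667 nm feature fluorescence with signal to noise over triplicate slides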
Test Settings: 635 nm fluorescence, higher = more signal
# label = TRUE if composite z-score >= 0.8 else FALSE

CN(C)C(=O)[C@@]1(Cc2ccccc2CN=[N+]=[N-])N=C(c2ccc(OCCCO)cc2)O[C@H]1c1ccccc1N=[N+]=[N-] = FALSE
CC(C)[Si](C#C[Si](C(C)C)(C(C)C)C(C)C)(O[C@H](c1ccccc1)c1cn(Cc2ccccc2)nn1)C(C)C = FALSE
[N-]=[N+]=Nc1ccccc1[C@H]1OC(c2ccc(OCCCO)cc2)=N[C@@]1(Cc1ccccc1)C(=O)NCCN1CCOCC1 = TRUE
CC(C)C(CO)N1C(=O)[C@@H]2C3C(=O)OCCC/C=C\[C@H]3OC23C=CCN(Cn2nnc4ccccc42)C(=O)[C@@H]13 (stereo partly specified) = FALSE
C=CCN1C(=O)[C@]2(CCS(=O)(=O)c3ccccc3)N=C(c3ccc(OCCCO)cc3)O[C@@H]2c2ccccc21 = TRUE
O=C(c1ccccc1)N1C(=O)[C@]2(Cc3ccccc31)N=C(c1ccc(OCCCO)cc1)O[C@@H]2c1ccccc1 = TRUE
CC(C)C(CO)N1C(=O)[C@@H]2C3C(=O)OCCC/C=C\[C@H]3OC23C=CCN(c2ccc4ccccc4c2)C(=O)[C@@H]13 (stereo partly specified) = FALSE
C[C@@H]1NC(=O)[C@@H](Cc2ccccc2)NC(=O)[C@@]23C(=O)N[C@@H](Cc4ccccc4)C2[C@H](C)[C@@]2(C)O[C@H]2C3/C=C/C/C=C\CNC1=O (stereo partly specified) = TRUE
CN(C)C(=O)[C@]1(CCC(=O)OC(C)(C)C)N=C(c2ccc(OCCCO)cc2)O[C@@H]1c1ccccc1CN=[N+]=[N-] = FALSE
CCOC(=O)C[C@H]1[C@H](OC(=O)Cc2ccc3c(c2)OCO3)[C@@H](NC(=O)c2ccc3ccccc3n2)c2cc(OCCCO)ccc2N1C(=O)c1ccc2ccccc2n1 = FALSE
C=C(COC)/C(=C/C[C@H](OC(=O)c1ccncc1)c1ccccc1OCCO)c1cc(C(=O)OC)ccc1OC = TRUE

----------
Tested on: Human papillomavirus type 1a E7 protein (residues 1-88)
Procedure Summary: HPV1a E7 small-molecule binders, primary screen, biochemical, small-molecule microarray, residues 1-88, 635 nm (AID 1129)
Test Settings: small-molecule microarray binding, fluorescence 635 nm; higher = more signal
Readout Kind: composite z-score

COc1ccc([Si](C)(C)[C@@H]2[C@@H](CC(=O)N3Cc4ccccc4C[C@H]3CO)O[C@]3(C(=O)N(Cc4ccc(N5C(=O)c6cccc7cccc5c67)cc4)c4ccccc43)[C@H]2C)cc1 = 1.18
C=C(/C(=C/C[C@H](OC(C)=O)c1ccc(CO)o1)c1cnc2ccccc2c1)C(C)C = 1.16
CC(C)=C1C(=O)C(c2ccccc2)=C2CN3C(=O)N(CCc4ccccc4)C(=O)[C@]3(Cc3ccc(C(F)(F)F)cc3)[C@H]21 = 0.566
C[C@@H]1NC(=O)[C@@H](Cc2ccccc2)NC(=O)[C@@]23C(=O)N[C@@H](Cc4ccccc4)C2[C@H](C)[C@@]2(C)O[C@H]2C3/C=C/C/C=C\CNC1=O (some centres undefined) = -0.514
CC(C)(C)OC(=O)CC[C@@]1(C(=O)NCC(O)CO)N=C(c2ccc(OCCCO)cc2)O[C@@H]1c1ccccc1CN=[N+]=[N-] (some centres undefined) = 0.98
CO[C@H]1O[C@H](CO)[C@@H](OC(=O)Nc2ccc(Br)cc2)[C@@H]2OC(=O)[C@@H](Cc3ccccc3)C/C=C/C[C@H](Cc3ccccc3)C(=O)O[C@@H]12 = 1.16
Cc1ccc(S[C@]2(C(=O)NCc3ccccc3)CC(=O)N(C3CCCCC3)[C@@H]2c2ccc(CO)cc2I)cc1 = 0.872
CS(=O)(=O)CCOC(=O)C1=CC(CCCO)=CC(c2ccc(CN3CCCC3)cc2)N(Cc2sc3ccccc3c2Cl)C=C1C(=O)OCCS(C)(=O)=O (centres undefined) = 1.18
CC(C)N1C(=O)C[C@@](C(=O)NC2CC2)(c2ccc([N+](=O)[O-])cc2)[C@H]1c1ccc(CO)cc1 = -0.0823
Cc1ccc(S[C@]2(C(=O)O)CC(=O)N(C3CCCCC3)[C@@H]2c2ccc(CO)cc2I)cc1 = 1.22
CCCCC(CC)C(O)C1C=CC2C(=O)N(C)C(=O)C2N1Nc1ccccc1 (centres undefined) = 1.21
COc1ccc(CCNC(=O)[C@@]2(Cc3ccccc3I)c3ccccc3C(=O)N(C3CCCCC3)[C@H]2c2ccc(CO)cc2)cc1 = 0.839
COc1ccc(CCNC(=O)[C@@]2(c3ccc([N+](=O)[O-])cc3)CC(=O)N(C3CCCCC3)[C@@H]2c2ccc(CO)cc2)cc1 = 1.22
[N-]=[N+]=Nc1ccccc1C[C@]1(C(=O)NCCN2CCOCC2)COC(c2ccc(OCCCO)cc2)=N1 = 1.26
